biological target: Papain (Carica papaya) (UniProt P00784); assay: Confirmatory qHTS assay for inhibitors of the protease papain; details: papain Z-FR-AMC cleavage, fluorescence; series mostly up to 49.8 µM
Sequence (P00784 whole entry, looked up): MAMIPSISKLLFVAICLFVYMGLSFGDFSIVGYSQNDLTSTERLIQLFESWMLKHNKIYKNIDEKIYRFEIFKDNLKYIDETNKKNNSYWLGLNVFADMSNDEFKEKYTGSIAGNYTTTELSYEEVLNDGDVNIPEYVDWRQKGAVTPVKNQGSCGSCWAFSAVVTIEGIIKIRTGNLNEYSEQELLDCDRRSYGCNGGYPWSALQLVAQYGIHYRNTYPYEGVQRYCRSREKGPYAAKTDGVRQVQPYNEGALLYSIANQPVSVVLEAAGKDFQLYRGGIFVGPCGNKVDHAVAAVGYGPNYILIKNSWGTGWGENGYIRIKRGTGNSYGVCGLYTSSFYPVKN
Records with an inconclusive call do not appear. Activity calls are given as the source filed them. Calls follow the shape of the dose curve; as a rule, active = well fitted inhibition curve with a large enough effect; inconclusive = small, poorly fitted or top-dose-only effect; inactive = flat fitted curve, though single readings scatter. Numbered stars: 1 amine (or outer) side, 2 acyl side, 3 side chain; on linkers, the order of the positions; unused ones are H or OH. Peptide text beside a SMILES is read from it. CO = O=C([*:1])[*:2]
Outcome field: choose from active, inactive

{"compound": "CC(C)C(NC(=O)C(CCCN=C(N)N)NC(=O)NC(Cc1ccccc1)C(=O)O)C(=O)NC(C=O)CCCN=C(N)N (stereo not drawn) ({Phe-CO}-Arg-Val-Arg-aldehyde; configuration not given here)", "assigned-class": "active"}
{"compound": "CCOc1nc(C#N)nc(N2CCCCC2)n1", "assigned-class": "active"}

Ask: Dear all, I need the recorded test outcome for `N#Cc1nc(Nc2cc(F)cc(F)c2)nc(NC2CCCC2)n1` , thank you.
Result: active

Ask: Query: recorded result category for `Cc1cccc(Nc2nc(C#N)nc(NC3CCCC3)n2)c1` in this test
Result: active

Ask: Which outcome was assigned to `N#Cc1nc(Nc2ccc(F)cc2)nc(NC2CCCC2)n1` in this test?
Result: active

Ask: What outcome does the record of this test show for `N#Cc1nc(Nc2cccc(Cl)c2)nc(NC2CCCC2)n1` ?
Result: active

Ask: What classification did `CC(=O)N[C@@H](CC(C)C)C(=O)N[C@@H](CC(C)C)C(=O)N[C@H](C=O)CCCN=C(N)N` end up with in this test?
Result: active

Ask: Assay outcome for `COc1ccc(Nc2nc(C#N)nc(NC3CCCC3)n2)cc1` : what was it?
Result: active

Ask: Given `O=c1oc(Cl)c(Cl)c2ccccc12` , state the outcome it received in this test.
Result: inactive
